Form: system (Mu-type opioid receptor (Rattus norvegicus)), quantity (pKi), values below.
Give bare numbers, as −log10 of the molar value.

SAMPLE SMILES: Cc1cccc(C)c1C[C@H](NC(=O)CNC(=O)CNC(=O)[C@@H](N)Cc1c(C)cc(O)cc1C)C(=O)N[C@@H](CC(C)C)C(=O)O
pKi: 8.25
--
SAMPLE SMILES: Cc1cc(O)cc(C)c1C[C@H](N)C(=O)NCC(=O)NCC(=O)N[C@H](Cc1c(C)cccc1C)C(=O)N[C@@H](CC(C)C)C(=O)O
pKi: 10.52
--
SAMPLE SMILES: Cc1cccc(C)c1C[C@@H](NC(=O)CNC(=O)CNC(=O)[C@@H](N)Cc1ccc(O)cc1)C(=O)N[C@@H](CC(C)C)C(=O)O
pKi: 8.90

What does the data say about its pKi? Entry: Cc1cc(O)cc(C)c1C[C@H](N)C(=O)NCC(=O)NCC(=O)N[C@@H](Cc1ccccc1)C(=O)N[C@@H](CC(C)C)C(=O)O
11.17

====

Form: system (Mu-type opioid receptor (Rattus norvegicus)), quantity (SR), values below.
Give bare numbers.

// known answers, use as guide
SAMPLE SMILES: Cc1cc(O)cc(C)c1C[C@H](N)C(=O)NCC(=O)NCC(=O)N[C@H](Cc1c(C)cccc1C)C(=O)N[C@@H](CC(C)C)C(=O)O
SR: 0.19
--
SAMPLE SMILES: Cc1cc(O)cc(C)c1C[C@H](N)C(=O)NCC(=O)NCC(=O)N[C@@H](Cc1ccccc1)C(=O)N[C@@H](CC(C)C)C(=O)O
SR: 0.22
--
SAMPLE SMILES: Cc1cccc(C)c1C[C@@H](NC(=O)CNC(=O)CNC(=O)[C@@H](N)Cc1ccc(O)cc1)C(=O)N[C@@H](CC(C)C)C(=O)O
SR: 0.07

// each compound listed below needs its SR
1. Cc1cccc(C)c1C[C@H](NC(=O)CNC(=O)CNC(=O)[C@@H](N)Cc1c(C)cc(O)cc1C)C(=O)N[C@@H](CC(C)C)C(=O)O
2. Cc1cccc(C)c1C[C@H](NC(=O)CNC(=O)CNC(=O)[C@@H](N)Cc1ccc(O)cc1)C(=O)N[C@@H](CC(C)C)C(=O)O

[0.14, 0.28]

====

target: Mu-type opioid receptor (Cavia porcellus, UniProt P97266); assay: In vitro inhibitory activity was determined against Opioid receptor mu 1 in guinea pig ileum
Sequence (P97266 whole entry): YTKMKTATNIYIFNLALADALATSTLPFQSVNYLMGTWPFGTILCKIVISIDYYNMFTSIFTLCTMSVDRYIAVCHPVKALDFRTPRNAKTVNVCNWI
Provide the reported IC50 of each item.

// known answers, use as guide
SAMPLE SMILES: Cc1cc(O)cc(C)c1C[C@H](N)C(=O)NCC(=O)NCC(=O)N[C@H](Cc1c(C)cccc1C)C(=O)N[C@@H](CC(C)C)C(=O)O
IC50: 2 nM
--
SAMPLE SMILES: Cc1cc(O)cc(C)c1C[C@H](N)C(=O)NCC(=O)NCC(=O)N[C@@H](Cc1ccccc1)C(=O)N[C@@H](CC(C)C)C(=O)O
IC50: 0.55 nM
--
SAMPLE SMILES: Cc1cccc(C)c1C[C@H](NC(=O)CNC(=O)CNC(=O)[C@@H](N)Cc1ccc(O)cc1)C(=O)N[C@@H](CC(C)C)C(=O)O
IC50: > 10 nM
--
SAMPLE SMILES: Cc1cccc(C)c1C[C@@H](NC(=O)CNC(=O)CNC(=O)[C@@H](N)Cc1ccc(O)cc1)C(=O)N[C@@H](CC(C)C)C(=O)O
IC50: 808 nM

// next item, IC50 requested
Under Mu-type opioid receptor (Cavia porcellus, UniProt P97266): IC50 value of Cc1cccc(C)c1C[C@H](NC(=O)CNC(=O)CNC(=O)[C@@H](N)Cc1c(C)cc(O)cc1C)C(=O)N[C@@H](CC(C)C)C(=O)O ?
> 10 nM

====

target: Delta-type opioid receptor (Mus musculus, UniProt P32300); experiment: Inhibitory activity against Opioid receptor delta 1 of (endomorphin 2) in mouse vas deferens was determined
Sequence (P32300 whole entry): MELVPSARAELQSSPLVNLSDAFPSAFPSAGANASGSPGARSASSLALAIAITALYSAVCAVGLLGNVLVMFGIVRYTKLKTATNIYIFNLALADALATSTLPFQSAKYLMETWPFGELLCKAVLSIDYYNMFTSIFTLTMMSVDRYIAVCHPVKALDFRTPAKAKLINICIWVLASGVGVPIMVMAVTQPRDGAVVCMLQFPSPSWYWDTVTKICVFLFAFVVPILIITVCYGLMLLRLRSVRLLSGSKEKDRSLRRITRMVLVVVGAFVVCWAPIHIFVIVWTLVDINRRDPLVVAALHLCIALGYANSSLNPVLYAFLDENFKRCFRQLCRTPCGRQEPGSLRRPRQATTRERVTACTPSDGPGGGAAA
REPORTED ENDPOINT: IC50

What does the data say about its IC50? Entry: Cc1cccc(C)c1C[C@H](NC(=O)CNC(=O)CNC(=O)[C@@H](N)Cc1c(C)cc(O)cc1C)C(=O)N[C@@H](CC(C)C)C(=O)O
> 10 nM
